Values compiled from the RNAGym collection of RNA variant scans (doi:10.7554/elife.80360).

B1: HDV Ribozyme (parent)
chain: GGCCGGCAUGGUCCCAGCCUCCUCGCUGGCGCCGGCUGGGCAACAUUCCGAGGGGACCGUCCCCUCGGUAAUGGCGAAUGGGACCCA

- Variants of: B1
- procedure.details: self-cleavage, relative activity (ratio to wild type); higher = more cleavage; co-transcriptional
Answer each item with its documented self-cleavage.

Worked cases, answers included:
# mut, self-cleavage
records = [
    ("A70G A83G", 0.692),
    ("G80A A83U", 0.229),
    ("C3U A71U", 0.742),
]

Dear reader, for each entry below, please note its self-cleavage.
1. G59A C62A
2. U12C C44G
3. A8U G82U
4. C13A G67C
5. G25A U27C
6. C22G G29U

Return:
1. 0.678
2. 0
3. 0.185
4. 0.259
5. 0.538
6. 0.217
